Measured values drawn from paper PMC12845239 for this set.

Target: ZIKV NS2B/NS3 (Zika virus, UniProt A0A024B7W1, R1467A/R1531G)
Sequence (A0A024B7W1 whole entry R1467A/R1531G, looked up): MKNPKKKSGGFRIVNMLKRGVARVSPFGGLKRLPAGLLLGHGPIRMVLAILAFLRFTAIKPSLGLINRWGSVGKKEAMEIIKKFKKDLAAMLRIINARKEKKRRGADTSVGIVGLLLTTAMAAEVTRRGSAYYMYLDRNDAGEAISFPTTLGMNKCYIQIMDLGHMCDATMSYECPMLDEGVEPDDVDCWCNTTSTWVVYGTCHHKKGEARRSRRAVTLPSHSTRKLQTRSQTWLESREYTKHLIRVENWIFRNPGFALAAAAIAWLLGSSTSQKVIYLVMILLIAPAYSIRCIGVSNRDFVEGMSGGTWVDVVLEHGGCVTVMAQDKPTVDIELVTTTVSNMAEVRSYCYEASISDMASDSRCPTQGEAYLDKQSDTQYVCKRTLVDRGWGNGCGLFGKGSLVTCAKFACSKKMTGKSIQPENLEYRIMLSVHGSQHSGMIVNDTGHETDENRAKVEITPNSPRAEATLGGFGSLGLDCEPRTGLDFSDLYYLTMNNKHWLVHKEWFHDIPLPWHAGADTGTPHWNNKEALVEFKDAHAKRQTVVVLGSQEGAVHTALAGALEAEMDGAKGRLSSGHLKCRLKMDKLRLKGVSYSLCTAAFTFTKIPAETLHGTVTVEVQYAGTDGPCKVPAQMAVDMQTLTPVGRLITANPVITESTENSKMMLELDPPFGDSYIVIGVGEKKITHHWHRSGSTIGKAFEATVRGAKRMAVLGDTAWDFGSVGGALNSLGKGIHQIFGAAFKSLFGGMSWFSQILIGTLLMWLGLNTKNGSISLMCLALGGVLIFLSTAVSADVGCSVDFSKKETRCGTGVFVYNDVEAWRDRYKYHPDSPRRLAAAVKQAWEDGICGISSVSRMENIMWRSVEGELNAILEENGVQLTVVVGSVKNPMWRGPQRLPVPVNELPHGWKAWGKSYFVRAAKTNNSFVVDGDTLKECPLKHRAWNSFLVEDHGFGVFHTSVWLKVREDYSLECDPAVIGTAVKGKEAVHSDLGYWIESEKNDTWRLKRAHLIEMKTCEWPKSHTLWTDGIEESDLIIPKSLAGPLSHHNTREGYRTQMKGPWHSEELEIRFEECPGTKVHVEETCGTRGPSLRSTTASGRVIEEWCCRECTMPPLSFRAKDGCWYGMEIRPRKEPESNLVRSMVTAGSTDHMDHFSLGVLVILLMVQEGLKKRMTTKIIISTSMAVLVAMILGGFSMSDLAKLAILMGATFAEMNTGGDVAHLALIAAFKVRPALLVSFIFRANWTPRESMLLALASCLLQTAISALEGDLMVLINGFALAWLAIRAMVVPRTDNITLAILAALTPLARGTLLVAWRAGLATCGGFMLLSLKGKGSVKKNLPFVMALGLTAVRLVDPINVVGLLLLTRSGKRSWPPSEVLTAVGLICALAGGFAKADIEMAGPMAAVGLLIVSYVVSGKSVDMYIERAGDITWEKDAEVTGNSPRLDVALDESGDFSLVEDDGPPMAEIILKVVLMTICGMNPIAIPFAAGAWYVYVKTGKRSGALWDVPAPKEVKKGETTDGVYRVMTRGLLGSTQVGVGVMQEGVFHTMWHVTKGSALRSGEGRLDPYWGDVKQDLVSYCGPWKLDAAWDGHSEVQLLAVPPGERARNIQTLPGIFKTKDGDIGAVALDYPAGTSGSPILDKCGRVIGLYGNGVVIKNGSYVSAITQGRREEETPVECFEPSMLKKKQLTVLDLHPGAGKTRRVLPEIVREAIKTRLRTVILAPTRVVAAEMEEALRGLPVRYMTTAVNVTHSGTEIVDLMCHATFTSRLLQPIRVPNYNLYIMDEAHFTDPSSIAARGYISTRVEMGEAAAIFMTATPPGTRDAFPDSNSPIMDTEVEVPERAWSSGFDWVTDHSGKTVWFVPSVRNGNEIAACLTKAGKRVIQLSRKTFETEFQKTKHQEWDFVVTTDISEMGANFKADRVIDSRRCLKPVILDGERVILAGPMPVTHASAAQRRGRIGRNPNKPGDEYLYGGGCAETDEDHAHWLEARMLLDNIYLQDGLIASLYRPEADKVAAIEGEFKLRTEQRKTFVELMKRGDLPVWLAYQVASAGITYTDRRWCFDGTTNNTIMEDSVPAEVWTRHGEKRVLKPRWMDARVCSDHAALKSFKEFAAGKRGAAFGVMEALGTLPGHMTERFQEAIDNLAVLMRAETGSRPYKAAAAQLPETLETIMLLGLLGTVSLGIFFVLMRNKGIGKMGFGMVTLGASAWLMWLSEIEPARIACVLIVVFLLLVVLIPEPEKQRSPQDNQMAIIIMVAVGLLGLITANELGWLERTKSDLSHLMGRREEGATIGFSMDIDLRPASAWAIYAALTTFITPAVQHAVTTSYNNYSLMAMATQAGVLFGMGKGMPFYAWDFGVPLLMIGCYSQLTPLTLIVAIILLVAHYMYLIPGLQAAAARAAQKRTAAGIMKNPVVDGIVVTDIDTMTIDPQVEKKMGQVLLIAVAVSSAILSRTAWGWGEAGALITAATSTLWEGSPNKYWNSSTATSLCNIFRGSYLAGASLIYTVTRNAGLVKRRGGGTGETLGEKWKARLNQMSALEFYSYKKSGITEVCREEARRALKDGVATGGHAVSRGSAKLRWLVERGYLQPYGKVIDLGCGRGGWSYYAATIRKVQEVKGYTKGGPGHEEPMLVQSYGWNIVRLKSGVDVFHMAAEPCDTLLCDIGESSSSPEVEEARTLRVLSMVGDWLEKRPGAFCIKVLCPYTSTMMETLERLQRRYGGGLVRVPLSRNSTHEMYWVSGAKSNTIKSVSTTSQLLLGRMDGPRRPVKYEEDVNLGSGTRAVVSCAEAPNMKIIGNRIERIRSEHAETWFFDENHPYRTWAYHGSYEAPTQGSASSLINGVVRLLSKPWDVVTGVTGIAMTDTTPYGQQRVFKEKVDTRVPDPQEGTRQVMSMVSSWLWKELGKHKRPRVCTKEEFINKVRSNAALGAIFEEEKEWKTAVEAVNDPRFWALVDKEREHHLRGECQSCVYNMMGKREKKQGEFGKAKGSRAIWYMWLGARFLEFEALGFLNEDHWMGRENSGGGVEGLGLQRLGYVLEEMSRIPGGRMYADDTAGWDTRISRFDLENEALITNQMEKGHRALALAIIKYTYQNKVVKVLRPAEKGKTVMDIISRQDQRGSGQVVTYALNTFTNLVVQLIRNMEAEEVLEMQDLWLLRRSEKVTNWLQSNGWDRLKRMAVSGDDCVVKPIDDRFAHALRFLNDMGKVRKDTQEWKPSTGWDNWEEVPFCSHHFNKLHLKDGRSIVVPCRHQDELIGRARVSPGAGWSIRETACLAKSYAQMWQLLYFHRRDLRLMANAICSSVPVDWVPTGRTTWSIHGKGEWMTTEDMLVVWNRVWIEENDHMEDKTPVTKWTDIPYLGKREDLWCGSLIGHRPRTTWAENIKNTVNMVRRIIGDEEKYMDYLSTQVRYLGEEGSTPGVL
Test: ZIKV protease relative inhibition assay (fluorometric, Bz-Nle-Lys-Arg-Arg-AMC 10 µM)
Assay type: biochemical
Details: 50 µM inhibitor, ZIKV protease 10 nM, substrate 10 µM
measured quantity: ZIKV % inhibition at 50 µM (%)
Only the number, expressed in %, is required.

// ZIKV % inhibition at 50 µM value for "O=C(Nc1nc2cc(O)c(O)cc2s1)[C@@H]1CCCCN1S(=O)(=O)c1cccc(C(F)(F)F)c1" : 42.2

// ZIKV % inhibition at 50 µM value for "O=C(Nc1nc2cc(O)c(O)cc2s1)[C@H]1CCCN1S(=O)(=O)c1cccc([N+](=O)[O-])c1" : 54.6

// ZIKV % inhibition at 50 µM value for "O=C(Nc1nc2cc(O)c(O)cc2s1)[C@@H]1CCCN1S(=O)(=O)c1cccc(C(F)(F)F)c1" : 36.6
